species on record: Rattus norvegicus; assay: Compound was tested for oral diuretic effect on spontaneously hypertensive rats by measuring the potassium excretion at vehicle concentration; format: ADME, organism-based, Urine; conditions: in vivo
endpoint-label: K+ excretion (m equiv 5hr-1 kg-1)

Cl.N#CN/C(=N\[C@H]1C[C@H]2CC[C@@H]1C2)Nc1ccc(N)nc1 (racemic) : 0.8
C[C@]12CC[C@H](C[C@@H]1/N=C(\NC#N)Nc1ccc(N)nc1)C2.Cl (racemic) : 0.8
CC(N/C(=N\C#N)Nc1ccncc1)C(C)(C)C (centres undefined) [PINACIDIL ANHYDROUS] : 1.078
Cl.N#CN/C(=N\[C@@H]1CC2CCC1C2)Nc1ccc(N)nc1 (mixture of isomers) : 1.078
